Assay procedure: CCTE_Simmons_MITO_basal_resp_rate: CCTE's HepG2 Seahorse XF Respirometric Screening Assay at Basal Respiratory State, Simmons Lab (AID 2284001)
Applied conditions: actives raise or lower the signal
Calls of active or inactive are those of the source. Rule for the calls: active = hit-call score of the fitted dose curve at least 0.9, where 1 is the maximum; inactive = score below 0.9.
Respond only with the outcome that fits, drawn from active, inactive

# count of solved cases: 5
| Molecule | Label |
| --- | --- |
| COc1ccc(-c2ccccc2)cc1NNC(=O)OC(C)C | inactive |
| CCOP(=S)(OCC)Oc1nc(Cl)n(C(C)C)n1 | active |
| CCSC(=O)N1CCCCCC1 | inactive |
| O=C1C2CC=CCC2C(=O)N1SC(Cl)(Cl)Cl (stereo unspecified) | active |
| CCCCC(O)(Cn1cncn1)c1ccc(Cl)cc1Cl (stereo unspecified) | active |

Switching to the query record.
Please indicate how the test categorized CCCCC(C#N)(Cn1cncn1)c1ccc(Cl)cc1 (stereo unspecified) .
inactive

---

Read-out: Alkaline Phosphatase, Placental (ALPP) gene, ALPP (gene 250)
Assay procedure: LTEA_HepaRG_ALPP: Life Technologies and Expression Analysis (LTEA) Assay for Alkaline Phosphatase, Placental (ALPP) gene using HepaRG (AID 2283468)
Applied conditions: mRNA level, 48 h; actives raise or lower the signal
Active and inactive are the calls of the source. Rule for the calls: active = hit-call score of the fitted dose curve at least 0.9, where 1 is the maximum; inactive = score below 0.9.
Hi! Could you answer with just one of these? yes for active, no for inactive

Field: example entries. Status: answers known.
| Compound | Label |
| --- | --- |
| CN/C(=N\[N+](=O)[O-])NCc1cnc(Cl)s1 | no |
| COc1cc(Cl)c(OC)cc1Cl | no |
| Nc1c(Cl)c(F)nc(OCC(=O)O)c1Cl | no |
| Clc1nc(Cl)nc(Nc2ccccc2Cl)n1 | no |

Assay outcome for CSC(=O)c1c(C(F)F)nc(C(F)(F)F)c(C(=O)SC)c1CC(C)C : what was it?
yes

Give the logged outcome of this assay for the following compound: COCc1cnc(C2=NC(C)(C(C)C)C(=O)N2)c(C(=O)O)c1 (centres undefined)
no

// return assay outcome for Cc1c(COC(=O)[C@@H]2[C@H](/C=C(\Cl)C(F)(F)F)C2(C)C)cccc1-c1ccccc1
no

Tell me the assay call for CCSC(=O)N1CCCCCC1 please.
no

What classification did CS(=O)(=O)c1cc(C(F)(F)F)ccc1C(=O)c1cnoc1C1CC1 end up with in this test?
no

---

Assay procedure: ATG_EGR_CIS: Attagene CIS-FACTORIAL HepG2 Assay for human Early Growth Response 1 (EGR1) (AID 2282938)
Applied conditions: HepG2 Attagene CIS-FACTORIAL EGR reporter mRNA; actives raise or lower the signal
The source made the active and inactive calls. Rule for the calls: active = hit-call score of the fitted dose curve at least 0.9, where 1 is the maximum; inactive = score below 0.9.
Answer with one of the outcomes label 1 for active, label 0 for inactive

| Molecule | Label |
| --- | --- |
| CC(C)(C)C(=O)C(Oc1ccc(Cl)cc1)n1cncn1 (configuration not stated) | label 0 |
| CCCCC(C#N)(Cn1cncn1)c1ccc(Cl)cc1 (configuration not stated) | label 0 |
| COP(=O)(OC)O/C(C)=C/C(=O)N(C)C | label 0 |
| CC(C)=CC1C(C(=O)OCc2coc(Cc3ccccc3)c2)C1(C)C (configuration not stated) | label 0 |
| CCCN(CC)CC1COC2(CCC(C(C)(C)C)CC2)O1 (configuration not stated) | label 1 |

Hey, what did the test say about CCCCOCN(C(=O)CCl)c1c(CC)cccc1CC ?
label 0

Short answer needed: outcome of this test for COCC(C)N(C(=O)CCl)c1c(C)csc1C (configuration not stated) ?
label 0

---

Read-out: glucuronosyltransferase (UGT1A1), UGT1A1 (gene 54658)
Assay procedure: CLD_UGT1A1_48hr: CellzDirect (CLD) Gene Expression Assay for glucuronosyltransferase (UGT1A1) at 48 hours (AID 2283709);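 note: actives increase expression relative to DMSO so potency refers to induction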
Results filed as inconclusive are left out. Calls of active or inactive are those of the source. How the source made its calls: active means hit-call score of the fitted dose curve at least 0.9, where 1 is the maximum; inconclusive means response in the unintended direction; inactive means score below 0.9.
Please reply with one of these outcomes: active, inactive

| Compound | Label |
| --- | --- |
| N#CN=C1SCCN1Cc1ccc(Cl)nc1 | inactive |
| CC(C)Nc1nc(Cl)nc(NC(C)C)n1 | active |
| CCOC(=O)C(C)OC(=O)c1cc(Oc2ccc(C(F)(F)F)cc2Cl)ccc1[N+](=O)[O-] (stereo not drawn) | active |
| CCCCOCN(C(=O)CCl)c1c(CC)cccc1CC | inactive |
| CC(C)(C)C(=O)C(Oc1ccc(Cl)cc1)n1cncn1 (stereo not drawn) | inactive |

Just curious, what result did CC(C)N1C(=O)N(c2ccccc2)CSC1=NC(C)(C)C get here?
inactive

Could you kindly confirm the outcome this assay logged for CS(=O)(=O)c1cc(C(F)(F)F)ccc1C(=O)c1cnoc1C1CC1 ?
inactive

What was the test verdict on Clc1nc(Cl)nc(Nc2ccccc2Cl)n1 ?
inactive

---

Read-out: C-C motif chemokine 2 (Homo sapiens)
Assay procedure: BSK_KF3CT_MCP1: BioMAP Diversity Plus: KF3CT Assay for Monocyte Chemoattractant Protein 1 (MCP1/CCL2) Biomarker Activity (AID 2283073)
Applied conditions: primary human keratinocytes with fibroblasts; actives raise or lower the signal
Calls of active or inactive are those of the source. Rule for the calls: active = hit-call score of the fitted dose curve at least 0.9, where 1 is the maximum; inactive = score below 0.9.
Hi there, use one of these labels in your reply, thanks! active, inactive

| Molecule | Label |
| --- | --- |
| CCOP(=S)(OCC)Oc1nc(Cl)n(C(C)C)n1 | inactive |

Hello, I am checking results. What call was entered for CN=C=S ?
inactive

// return assay outcome for CCOC(=O)C(C)OC(=O)c1cc(Oc2ccc(C(F)(F)F)cc2Cl)ccc1[N+](=O)[O-] (configuration not stated)
inactive

---

Read-out: Interferon-gamma inducible Protein 10 (IP10), CXCL10 (gene 3627)
Assay procedure: BSK_KF3CT_IP10: BioMAP Diversity Plus: KF3CT Assay for Interferon-gamma inducible Protein 10 (IP10) Biomarker Activity (AID 2283068)
Applied conditions: primary human keratinocytes with fibroblasts; actives raise or lower the signal
Calls of active or inactive are those of the source. Rule for the calls: active = hit-call score of the fitted dose curve at least 0.9, where 1 is the maximum; inactive = score below 0.9.
I would appreciate it if you answered using one of these outcomes: active, inactive

A selection of reference data follows.
| Compound | Label |
| --- | --- |
| Nc1c(Cl)c(Cl)nc(C(=O)O)c1Cl | inactive |
| COC(=O)N(C(=O)N1CO[C@@]2(C(=O)OC)Cc3cc(Cl)ccc3C2=N1)c1ccc(OC(F)(F)F)cc1 | active |
| C=C(C)CN(CC)c1c([N+](=O)[O-])cc(C(F)(F)F)cc1[N+](=O)[O-] | active |
| COc1cc(OC)nc(NC(=O)NS(=O)(=O)c2ncccc2OCC(F)(F)F)n1 | inactive |
| CN/C(=N\[N+](=O)[O-])NCc1cnc(Cl)s1 | inactive |

Test call, this compound: CCCC(=NOCC)C1=C(O)CC(CC(C)SCC)CC1=O (configuration not stated)
inactive

What is the recorded call for this compound in the test? O=c1n(Cl)c(=O)n(Cl)c(=O)n1Cl
inactive

---

Read-out: Macrophage colony-stimulating factor (MCSF), CSF1 (gene 1435)
Assay procedure: BSK_hDFCGF_MCSF: BioMAP Diversity Plus: hDFCGF Assay for Macrophage colony-stimulating factor (MCSF) Biomarker Activity (AID 2283060)
Applied conditions: primary human foreskin fibroblasts; actives raise or lower the signal
Active and inactive are the calls of the source. How the source made its calls: active means hit-call score of the fitted dose curve at least 0.9, where 1 is the maximum; inactive means score below 0.9.
Readout label: AC50

// known answers, use as guide
| Compound | Reported |
| --- | --- |
| Cc1cc(C)nc(Nc2ccccc2)n1 | inactive |
| COCC(C)N(C(=O)CCl)c1c(C)csc1C (stereo not drawn) | inactive |
| CCC(C)n1c(=O)[nH]c(C)c(Br)c1=O (stereo not drawn) | inactive |
| Nc1cnn(-c2ccccc2)c(=O)c1Cl | inactive |
| CCCCC(C#N)(Cn1cncn1)c1ccc(Cl)cc1 (stereo not drawn) | inactive |

Provide one value: measured AC50 of COP(=S)(OC)Oc1ccc([N+](=O)[O-])c(C)c1
13.2 µM (active)

For CCCN(CC)CC1COC2(CCC(C(C)(C)C)CC2)O1 (stereo not drawn) , write its AC50.
inactive

Answer with reported AC50 of CCNC(=O)NC(=O)C(C#N)=NOC
inactive

---

Assay procedure: BSK_CASM3C_SRB: Viability Assessment in the BioMAP Diversity Plus: CASM3C Assay (AID 2283050);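 note: total protein by SRB staining as cytotoxicity measure in parallel cultures; cells exposed to compound for 24 h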
Applied conditions: primary human coronary artery smooth muscle cells
Active and inactive are the calls of the source. Rule for the calls: active = hit-call score of the fitted dose curve at least 0.9, where 1 is the maximum; inactive = score below 0.9.

| Compound | outcome |
| --- | --- |
| COC(=O)NS(=O)(=O)c1ccc(N)cc1 | inactive |
| Cc1cnc(C2=NC(C)(C(C)C)C(=O)N2)c(C(=O)O)c1 (centres undefined) | inactive |
| CNC(=O)N(C)c1nnc(C(C)(C)C)s1 | inactive |
| Clc1cccc(C(Cl)(Cl)Cl)n1 | inactive |

---

Assay procedure: Tanguay_ZF_120hpf_YSE_legacy: (Legacy) Oregon State University Tanguay Lab 120 Hour Post-fertilization zebrafish Assay for Yolk Sac Edema (AID 2283634)
Records with an inconclusive call do not appear. Activity calls are given as the source filed them. How the source made its calls: active means hit-call score of the fitted dose curve at least 0.9, where 1 is the maximum; inconclusive means response in the unintended direction; inactive means score below 0.9.
Reply using exactly one outcome from active, inactive

Which outcome was entered for the compound CCOP(=O)(OCC)Oc1nc(Cl)c(Cl)cc1Cl in this test?
inactive

Hello, I am checking results. What call was entered for COP(=O)(OC)O/C(C)=C/C(=O)N(C)C ?
inactive

Field: outcome | Entry: Cc1cnc(C2=NC(C)(C(C)C)C(=O)N2)c(C(=O)O)c1 (stereo not drawn)
inactive

GET /call?item= Nc1cnn(-c2ccccc2)c(=O)c1Cl returns the recorded outcome of this test.
inactive
